Test system: intracellular proteome of ENR+CD and ENR organoids
Assay: LC-MS/MS TMT proteomics of ENR+CD versus ENR organoids
Format: cell-based, C57BL/6 mice
Conditions: up = enriched in ENR+CD, down = enriched in ENR; FDR<0.05 and log fold change cut-off
outcome_measure: change

| molecule | outcome_measure | result |
| --- | --- | --- |
| P48756 (protein, UniProt P48756 1-144, looked up, full-length) MVALKTCSLLLVLLFLAVGLGEKEEVEFRSHAKFAGPRPRGPRYAEGTFISDYSIAMDKIRQQDFVNWLLAQRGKKSDWKHNITQREARALVLAGQSQGKEDKEAQESSLPKSLSDDDVLRDLLIQELLAWMVDQTELCRLRSQ | change | up |
| P51162 (protein, UniProt P51162 1-128, looked up, full-length) MAFSGKYEFESEKNYDEFMKRLGLPGDVIERGRNFKIITEVQQDGQDFTWSQSYSGGNIMSNKFTIGKECEMQTMGGKKFKATVKMEGGKVVAEFPNYHQTSEVVGDKLVEISTIGDVTYERVSKRLA | change | down |
| Q9D8W7 (protein, UniProt Q9D8W7 1-154, looked up, full-length) MASVSTHGNQEKSPHLPPLSKQSLLFCPKSKLHIHRGEIAKIIRECQEESFWKRALPFSLISMLVTQGLVHQGYLAANPRFGSLPKVALAGLLGFGLGKASYIRVCQSKFHSFEDQLRGAGFGPEHNRHCLLTCEDCKTRRGLSEKAGSQPSAS | change | down |
| Q9CXC3 (protein, UniProt Q9CXC3 1-338, looked up, full-length) MKLPLTFCRLLSRLNRFSVKASPPVSFSTFSYLCSQKKKNSYEAVDQAKYSRLVRSVLSRGPAQTPESLFKEDDVLYGPVSKHKAAEPEPQARVPQHCFPIFNEERTGKPHTDASSSPLKIPLQRNSIPSVTRILQQTMPPEQSFFLERWKERMVLELGEDGFAEYTSNVFLQGKQFHKALESILSPQENLTGGEEHPQCGYIESIQHILTEISGVQALESAVQHEALKYVGLLDCVAEYRGKLCVIDWKTSEKPKPLIRNTYDNPLQVVAYMGAVNHDAHYSFQVQCGLIVVAYKDGSPAHPHFMDEELCSKYWAKWLLRLEEYTEKQKNLSAPEPA | change | down |
| Q8K4R4 (protein, UniProt Q8K4R4 1-332, looked up, full-length) MLLKEYRICMPLTVDEYKIGQLYMISKHSHEQSDRGEGVEVVQNEPFEDPHHGNGQFTEKRVYLNSKLPSWARAVVPKIFYVTEKAWNYYPYTITEYTCSFLPKFSIHIETKYEDNKGSNDSIFDSEAKDLEREVCFIDIACDEIPERYYKESEDPKHFKSEKTGRGQLREGWRDNHQPIMCSYKLVTVKFEVWGLQTRVEQFVHKVVRDILLIGHRQAFAWVDEWYDMTMDEVREFERATQEATNKKIGVFPPAISISSIALLPSSVRSAPSSAPSTPLSTDAPEFLSIPKDRPRKKSAPETLTLPDPEKKATLNLPGVYTSEKPCRPKSE | change | up |
| Q4V9W2 (protein, UniProt Q4V9W2 1-153, looked up, full-length) MAVPGCNKDNVRAGCRKCGYPGHLTFECRNFLRVDPKRDIVLDVSSTSSEDSDEENEELNKLQALQEKRINEEEEKKKEKSREKIKLKKRRKRSYSSATEEDSAKQKKQKYQKKEKKKEKKNKSKKGKHHKKEKKKRKKEKRSSPYHSELTKK | change | down |

Fill in: change of Q9DCT8 (protein, UniProt Q9DCT8 1-208, looked up, full-length) MASKCPKCDKTVYFAEKVSSLGKDWHKFCLKCERCNKTLTPGGHAEHDGKPFCHKPCYATLFGPKGVNIGGAGSYIYEKPQTEAPQVTGPIEVPVVRTEERKTSGPPKGPSKASSVTTFTGEPNMCPRCNKRVYFAEKVTSLGKDWHRPCLRCERCSKTLTPGGHAEHDGQPYCHKPCYGILFGPKGVNTGAVGSYIYDKDPEGTVQP is ___
up

Proceed to Q9JIB0 (protein, UniProt Q9JIB0 1-185, looked up, full-length) MEPNRNCPLFGGAFSAILPTGAIDVSDLRPVPDNQEVFCHPVTDQSLIIELLELQAHVQGEAAARYHFEDVGRVQGARAVHVLSVQPLCLENLSLRGCCQDAWSLSGKQQVAKENQQVAKDVTLHQALLRLPQYQTDLLLTFNQPPCHSRSLGPENLSCPPWSLSNFEQLVTSLTLHDPNLFGPQ
down

Proceed to Q99LZ3 (protein, UniProt Q99LZ3 1-223, looked up, full-length) MTEVLDLHGQDSDGGSEEMVLTPAELIEKLEQAWMNEKFAPELLESKAEIVECVMEQLEHMEENLRRAKKGDLKVSIHRMEMERIRYVLSSYLRCRLMKIEKFFPHILEKEKVRSEGEPSSLSPEEFVFAKEYMDHTETHFKNVALKHMPPNLQKVDLLRAVPKPDLDSYVFLRVKERQENILVEPEADEQRDYVIDLEVGSQHLIRYKTIAPLVASGAVQLI
down

Proceed to O88513 (protein, UniProt O88513 1-206, looked up, full-length) MNLSMKQKQEGAQENVKNSPVPRRTLKMIQPSADGSLVGRENELPKGLFKRKLWDDQLASQTSSCGPEANENKDVGDLTQEAFDLISKENPSSQYWKEVAEQRRKALYEALKENEKLHKEIEQKDSEIARLRKENKDLAEVAEHVQYMAEVIERLSNEPLDNFESPDSQEFDSEEEAVEYSELEDSGAGTCAEETVSSSTDARPCT
down
